// values below are reported remaining at 2 h
test: Stability in human Caco-2 homogenates after 2 hrs; assay type: ADME; conditions: Caco-2 cell homogenates, read-out: Stability
Where a SMILES comes first, the peptide text is derived from it. [ ]: non-standard residue; d: D form. ξ: configuration not given here. ξGly(dodecyl) = CCCCCCCCCCCCC(N)C(=O)O; ξGly(decyl) = CCCCCCCCCCC(N)C(=O)O; ξGly(octyl) = CCCCCCCCC(N)C(=O)O; ξAoc(2) = CCCCCCC(N)C(=O)O
reported-property: remaining at 2 h (%)

1) CCCCCCCCCCCCC(N)C(=O)NC(CCCCCCCCCCCC)C(=O)N[C@@H](CCC(=O)O)C(=O)N[C@@H](Cc1c[nH]c2ccccc12)C(N)=O (some centres not stated) (H-[ξGly(dodecyl)][ξGly(dodecyl)]EW-NH2) : 90
2) CCCCCCCCCCCCC(N)C(=O)N[C@@H](CCC(=O)O)C(=O)N[C@@H](Cc1c[nH]c2ccccc12)C(N)=O (some centres not stated) : 65
3) CCCCCCCCCCC(N)C(=O)N[C@@H](CCC(=O)O)C(=O)N[C@@H](Cc1c[nH]c2ccccc12)C(N)=O (some centres not stated) : 65
4) CCCCCCCCCCC(N)C(=O)NC(CCCCCCCCCC)C(=O)N[C@@H](CCC(=O)O)C(=O)N[C@@H](Cc1c[nH]c2ccccc12)C(N)=O (some centres not stated) (H-[ξGly(decyl)][ξGly(decyl)]EW-NH2) : 90
5) CCCCCCC(N)C(=O)N[C@@H](CCC(=O)O)C(=O)N[C@@H](Cc1c[nH]c2ccccc12)C(N)=O (stereo partly drawn) (H-[ξAoc(2)]-Glu-Trp-NH2) : 40
6) CCCCCCCCC(NC(=O)[C@@H](N)CCC(=O)O)C(=O)N[C@@H](Cc1c[nH]c2ccccc12)C(N)=O (some centres not stated) : 40
7) NC(=O)[C@H](Cc1c[nH]c2ccccc12)NC(=O)[C@@H](N)CCC(=O)O (H-Glu-Trp-NH2) : 35
8) CCCCCCCCCCC(NC(=O)[C@@H](N)CCC(=O)O)C(=O)N[C@@H](Cc1c[nH]c2ccccc12)C(N)=O (some centres not stated) : 40
9) CCCCCCCCC(N)C(=O)NC(CCCCCCCC)C(=O)N[C@@H](CCC(=O)O)C(=O)N[C@@H](Cc1c[nH]c2ccccc12)C(N)=O (some centres not stated) (H-[ξGly(octyl)][ξGly(octyl)]EW-NH2) : 40
10) CCCCCCCCC(N)C(=O)N[C@@H](CCC(=O)O)C(=O)N[C@@H](Cc1c[nH]c2ccccc12)C(N)=O (some centres not stated) : 40
11) CCCCCCC(NC(=O)[C@@H](N)CCC(=O)O)C(=O)N[C@@H](Cc1c[nH]c2ccccc12)C(N)=O (some centres not stated) (H-Glu-[ξAoc(2)]-Trp-NH2) : 40
12) CCCCCCC(N)C(=O)NC(CCCCCC)C(=O)N[C@@H](CCC(=O)O)C(=O)N[C@@H](Cc1c[nH]c2ccccc12)C(N)=O (some centres not stated) (H-[ξAoc(2)][ξAoc(2)]EW-NH2) : 90

----------
test: Stability in human Caco-2 homogenates after 1 hr; assay type: ADME; conditions: Caco-2 cell homogenates, read-out: Stability
reported-property: remaining at 1 h

1. CCCCCCCCCCCCC(N)C(=O)N[C@@H](CCC(=O)O)C(=O)N[C@@H](Cc1c[nH]c2ccccc12)C(N)=O (some centres not stated) : 75%
2. CCCCCCCCCCC(N)C(=O)N[C@@H](CCC(=O)O)C(=O)N[C@@H](Cc1c[nH]c2ccccc12)C(N)=O (some centres not stated) : 75%

Cited source for all entries: ChEMBL document CHEMBL1140474
